Tested on: RAW-Dual
Test: NF-kB SEAP reporter activity, fold change vs agonist alone; cytotoxicity flag (confluency mask): not cytotoxic; higher = enhanced NF-kB activity
Settings: agonist: Pam3CSK4 (TLR2/1) 0.1 ug/mL
In all, about 2,900 compounds were measured (“NF-kB SEAP reporter activity, fold change vs agonist alone”: median about 0.99, highest 2% from about 2.6 on). Only a selection was taken, and the highest values are over-represented in it overall.

| compound | NF-kB SEAP reporter activity |
| --- | --- |
| CNC(=O)c1ccccc1Nc1nc(Nc2ccc(N3CCOCC3)cc2OC)ncc1Cl (library stock concentration (final ~1000-fold dilution): 10 mM) | 0.246 |
| O=C(Nc1nccs1)C(c1cc(F)ccc1O)N1Cc2ccccc2C1=O (configuration not stated) (library stock concentration (final ~1000-fold dilution): 10 mM) | 1.02 |
| O=C(c1cccc(Br)c1)N1CCC(N2CCCC2)CC1 (library stock concentration (final ~1000-fold dilution): 10 mM) | 0.966 |
| COCCOc1nc(N)c2[nH]c(=O)n(Cc3ccc(C(=O)O)cc3)c2n1 (library stock concentration (final ~1000-fold dilution): 10 mM) | 2.77 |
| C#CCNC1CCc2ccccc21 (configuration not stated) (library stock concentration (final ~1000-fold dilution): 10 mM) | 1.08 |
| Br.NC(=O)C(c1ccccc1)(c1ccccc1)C1CCN(CCc2ccc3c(c2)CCO3)C1 (configuration not stated) (library stock concentration (final ~1000-fold dilution): 10 mM) | 0.919 |
| Cc1cc(N2CCOCC2)cc2[nH]c(-c3c(NCC(O)c4cccc(Cl)c4)cc[nH]c3=O)nc12 (configuration not stated) (library stock concentration (final ~1000-fold dilution): 10 mM) | 0.595 |
| Cl.N=C(N)NCCCCC(N)C(=O)O (configuration not stated) (library stock concentration (final ~1000-fold dilution): 10 mM water) | 0.923 |
| CCCCOc1nc(N)c2c(n1)N(Cc1cccc(CN3CCCC3)c1)CC(=O)N2 (library stock concentration (final ~1000-fold dilution): 1 mM) | 1.25 |
| COc1ccccc1C(=O)Nc1cc2c(cc1N1CCNCC1C)n(C)c(=O)n2C (configuration not stated) (library stock concentration (final ~1000-fold dilution): 10 mM) | 0.973 |
| COC1/C=C/OC2(C)Oc3c(C)c(O)c4c(O)c(c(/C=N/N5CCN(C6CCCC6)CC5)c(O)c4c3C2=O)NC(=O)/C(C)=C/C=C/C(C)C(O)C(C)C(O)C(C)C(OC(C)=O)C1C (configuration not stated) (library stock concentration (final ~1000-fold dilution): 10 mM) | 0.742 |
| CNCCN1CCC(OCc2ccccc2)CC1.Cl.Cl (library stock concentration (final ~1000-fold dilution): 10 mM) | 1.53 |
| CCOC(=O)COc1ccc(/C=C2\SC(=S)NC2=O)cc1OC (library stock concentration (final ~1000-fold dilution): 10 mM) | 1.1 |
| CCCS(=O)(=O)NC1CC(N(C)c2ncnc3[nH]ccc23)C1 (configuration not stated) (library stock concentration (final ~1000-fold dilution): 10 mM) | 0.875 |
| CNC1C(O)C(OC2C(NC(=O)C(O)CN)CC(N)C(OC3OC(CN)C(O)C(O)C3O)C2O)OCC1(C)O.O=S(=O)(O)O (configuration not stated) (library stock concentration (final ~1000-fold dilution): 10 mM water) | 1.14 |
| COc1cc2c(cc1OC)CN(C(=O)/C=C/c1c(-c3ccccc3)n(C)c3ncccc13)CC2.Cl (library stock concentration (final ~1000-fold dilution): 10 mM) | 1.18 |
| O=c1cc(-c2ccc(O)c(O)c2O)oc2ccccc12 (library stock concentration (final ~1000-fold dilution): 10 mM) | 0.532 |
| CCCCCCCCCCCCCCCC(=O)OC1C(SC)OC(C(NC(=O)C2CC(CCC)CN2C)C(C)Cl)C(O)C1O.Cl (configuration not stated) (library stock concentration (final ~1000-fold dilution): 10 mM) | 0.713 |
| CC1COC2Cn3cc(C(=O)NCc4ccc(F)cc4F)c(=O)c(O)c3C(=O)N12 (configuration not stated) (library stock concentration (final ~1000-fold dilution): 10 mM) | 0.866 |
| Cc1cn(-c2cc(NC(=O)c3ccc(C)c(Nc4nccc(-c5cccnc5)n4)c3)cc(C(F)(F)F)c2)cn1.Cl (library stock concentration (final ~1000-fold dilution): 10 mM) | 0.466 |
| Cl.Clc1cccc(-c2nnnn2Cc2cccnc2)c1Cl (library stock concentration (final ~1000-fold dilution): 10 mM) | 0.958 |
| Cc1nn(CC(F)(F)F)cc1Nc1ncc(Br)c(NCc2ccc(S(N)(=O)=O)cc2)n1 (library stock concentration (final ~1000-fold dilution): 10 mM) | 1.54 |

* * *

Test system: RAW-Dual
Assay: NF-kB SEAP reporter activity, fold change vs agonist alone; cytotoxicity flag (confluency mask): not cytotoxic; higher = enhanced NF-kB activity
Settings: agonist: LPS (TLR4) 0.1 ug/mL
In all, about 2,900 compounds were measured (“NF-kB SEAP reporter activity, fold change vs agonist alone”: median about 0.99, highest 2% from about 2.6 on). The list comes from a sample in which the highest values are over-represented; it also holds close analogues and randomly drawn compounds.
Quick rule for you: NF-kB SEAP reporter activity at 2 or higher means 1, lower means -1.

| molecule | assignedClass |
| --- | --- |
| COC1=CC(c2cc3ccccc3[nH]2)=N/C1=C\c1[nH]c(C)cc1C.CS(=O)(=O)O (library stock concentration (final ~1000-fold dilution): 10 mM) | 1 |
| CC(C)CC(NC(=O)C(NC(=O)c1cccc(-c2ccccc2)n1)C(C)O)B(O)O (stereo not given) (library stock concentration (final ~1000-fold dilution): 10 mM) | -1 |
| N#CC1CC2CC2N1C(=O)C(N)C12CC3CC(CC(O)(C3)C1)C2 (stereo not given) (library stock concentration (final ~1000-fold dilution): 10 mM) | -1 |
| CC(C)NC(=O)C1CCC(n2c(=NC(=O)c3ccc(F)cc3)[nH]c3ccc(CN4CCC(C(C)(C)O)CC4)cc32)CC1 (stereo not given) (library stock concentration (final ~1000-fold dilution): 10 mM) | -1 |
| Clc1ccc(N/N=C(\c2ccccc2)c2ccccn2)nc1 (library stock concentration (final ~1000-fold dilution): 10 mM) | 1 |
| CCC1(O)CC2CN(CCc3c([nH]c4ccccc34)C(C(=O)OC)(c3cc4c(cc3OC)N(C=O)C3C(O)(C(=O)OC)C(OC(C)=O)C5(CC)C=CCN6CCC43C65)C2)C1.O=S(=O)(O)O (stereo not given) (library stock concentration (final ~1000-fold dilution): 10 mM) | 1 |
| CC1CCOC2Cn3cc(C(=O)NCc4ccc(F)cc4F)c(=O)c(O)c3C(=O)N12 (stereo not given) (library stock concentration (final ~1000-fold dilution): 10 mM) | -1 |
| COc1ccc(S(=O)(=O)N(C(C)=O)c2ccccc2/C=C/c2cc[n+]([O-])cc2)cc1 (library stock concentration (final ~1000-fold dilution): 10 mM) | -1 |
| CC1CNC(=O)c2cnn3ccc(nc23)NC(C)c2cc(F)ccc2O1 (stereo not given) (library stock concentration (final ~1000-fold dilution): 10 mM) | -1 |
| N#Cc1ccnc(N2C(=O)CCC2C(=O)N(c2cncc(F)c2)C(C(=O)NC2CC(F)(F)C2)c2ccccc2Cl)c1 (stereo not given) (library stock concentration (final ~1000-fold dilution): 10 mM) | -1 |

* * *

Tested on: RAW-Dual
Experiment: NF-kB SEAP reporter activity, fold change vs agonist alone; cytotoxicity flag (confluency mask): not cytotoxic; higher = enhanced NF-kB activity
Settings: agonist: Pam2CSK4 (TLR2/6) 0.1 ug/mL
Over roughly 2,900 compounds, “NF-kB SEAP reporter activity, fold change vs agonist alone” has its median near 0.99; the highest 2% begin near 2.6. This is one part of a sample in which the highest values are shown more often than they occur.
Consider the following molecules and their measured NF-kB SEAP reporter activity readings.

| molecule | NF-kB SEAP reporter activity |
| --- | --- |
| N=C(N)NCCN1CCCCCCC1.O=S(=O)(O)O (library stock concentration (final ~1000-fold dilution): 10 mM water) | 1.06 |
| COC(=O)C(CC(C)C)NC(=O)c1ccc(NCC(N)CS)cc1-c1cccc2ccccc12.O=C(O)C(F)(F)F (stereo not drawn) (library stock concentration (final ~1000-fold dilution): 10 mM) | 1.5 |
| CC(C)C(C(=O)Nc1ccc(C(=O)NO)cc1)c1ccccc1 (stereo not drawn) (library stock concentration (final ~1000-fold dilution): 10 mM) | 1.12 |

* * *

Consider the following molecules and their measured NF-kB SEAP reporter activity readings.
System: RAW-Dual
Experiment: NF-kB SEAP reporter activity, fold change vs agonist alone; cytotoxicity flag (confluency mask): cytotoxic (confluency <70% of control); higher = enhanced NF-kB activity
Conditions: agonist: Pam2CSK4 (TLR2/6) 0.1 ug/mL
In all, about 2,900 compounds were measured (“NF-kB SEAP reporter activity, fold change vs agonist alone”: median about 0.99, highest 2% from about 2.6 on). Many of the other results were omitted from the sample, so the highest values are more common in it than they were.

| molecule | NF-kB SEAP reporter activity |
| --- | --- |
| O=C1Nc2ccc(Cl)cc2C(C#CC2CC2)(C(F)(F)F)O1 (stereo unspecified) (library stock concentration (final ~1000-fold dilution): 10 mM) | 0.614 |
| C=C(Cc1ccccc1Cl)C(=O)OCC (library stock concentration (final ~1000-fold dilution): 10 mM) | 0.682 |
| COC(=O)CC(O)(CCCC(C)(C)O)C(=O)OC1C(OC)=CC23CCCN2CCc2cc4c(cc2C13)OCO4 (stereo unspecified) (library stock concentration (final ~1000-fold dilution): 10 mM) | 0.0771 |
| CCc1cnn2c(NCc3ccc[n+]([O-])c3)cc(N3CCCCC3CCO)nc12 (stereo unspecified) (library stock concentration (final ~1000-fold dilution): 10 mM) | 0.0843 |
| CCCSc1nc(NC2CC2c2ccc(F)c(F)c2)c2nnn(C3CC(OCCO)C(O)C3O)c2n1 (stereo unspecified) (library stock concentration (final ~1000-fold dilution): 10 mM) | 0.51 |
| Nc1ccc(-c2ccc3ncc4ccc(=O)n(-c5cccc(C(F)(F)F)c5)c4c3c2)cn1 (library stock concentration (final ~1000-fold dilution): 10 mM) | 1.77 |
| COc1cc(F)ccc1-c1ncnc(Nc2cccc(CS(C)(=N)=O)c2)n1 (stereo unspecified) (library stock concentration (final ~1000-fold dilution): 10 mM) | 0.277 |
| CC/C=C\C/C=C\C/C=C\C/C=C\C/C=C\C/C=C\CCC(=O)NCCNC(=O)c1ccccc1O (library stock concentration (final ~1000-fold dilution): 10 mM) | 0.133 |
| CC(C)COCC(CN(Cc1ccccc1)c1ccccc1)N1CCCC1.Cl.O (stereo unspecified) (library stock concentration (final ~1000-fold dilution): 10 mM) | 0.673 |
| NS(=O)(=O)OC[C@H]1C[C@@H](Nc2ccnc3cc(-c4cccc(SC(F)(F)F)c4)nn23)[C@H](O)[C@@H]1O (library stock concentration (final ~1000-fold dilution): 10 mM) | 0.0814 |
| COc1ccc(-c2nc(N3CCOCC3)c3sc(CN(C)c4ncc(C(=O)NO)cn4)cc3n2)cn1 (library stock concentration (final ~1000-fold dilution): 10 mM) | 1.3 |
